Give measured koff for each item. Keep answers brief.
- system.under.test: T1, murine pro-myostatin (mouse, UniProt O08689 25-376, biotinylated (in the SPR assay))
- T1 construct: also called proGDF8 (mouse); mouse pro-myostatin
- measurement.notes: SPR Biacore 8K, biotin-antigen captured
Answers are plain numbers, in s⁻¹.

[
  {
    "binder": "Ab103 (antibody, human IgG4 S228P, kappa, V domains shown) VH: EVQLVESGGGLVQPGGSLRLSCAASGYTFSSYGMSWVRQAPGKGLELVASITGDAGRTYYPDSVKGRFTISRDNAKNSLYLQMNSLRAEDTAVYYCARDTLVRFLEWSHYYGMDVWGQGTTVTVSS VL: DIVMTQSPLSLPVTPGEPASISCRSSQSLLHSSGHNFLHWYLQKPGQSPQLLIYEVSNRVSGVPDRFSGSGSGTDFTLKISRVEAEDVGVYYCMQQTQYPPTFGGGTKVEIKR",
    "result": 0.00221
  },
  {
    "binder": "Ab115 (antibody, human IgG4 S228P, kappa, V domains shown) VH: QVQLVQSGAEVKKPGASVKVSCKVSGYAFTNYNIHWVRQAPGKGLEWMGGINPRTGGTIYAQKFQGRVTMTEDTSTDTAYMELSSLKSEDTAVYYCAKDIYTGVAVAGSGMDYWGQGTLVTVSS VL: DIQMTQSPSSVSASVGDRVTITCRASQGISTHLAWYQQKPGKAPKLLIYGASNLESGVPSRFSGSGSGTDFTLTISSLQPEDFANYYCQQANSFPWTFGGGTKVEIKR",
    "result": 0.00137
  },
  {
    "binder": "Ab102 (antibody, human IgG4 S228P, kappa, V domains shown) VH: EVQLVESGGGLVQPGGSLRLSCAASGFTFTSYGMSWVRQAPGKGLELVASITGSGGETYYPDSVKGRFTISRDNAKNSLYLQMNSLRAEDTAVYYCARDLLVRFLEWSHYYGMDVWGQGTTVTVSS VL: DIVMTQSPLSLPVTPGEPASISCRSSQSLLHSSGHNFLHWYLQKPGQSPQLLIYETSNRAPGIPDRFSGSGSGTDFTLKISRVEAEDVGVYYCMQATQFPRPFGGGTKVEIKR",
    "result": 0.0005
  },
  {
    "binder": "Ab101 (antibody, human IgG4 S228P, kappa, V domains shown) VH: EVQLVESGGGLVQPGGSLRLSCAASGSAFSSYGMSWVRQAPGKGLELVASINSNGGSTYYPDSVKGRFTISRDNAKNSLYLQMNSLRAEDTAVYYCARDLLVRFLEWSHYYGMDVWGQGTTVTVSS VL: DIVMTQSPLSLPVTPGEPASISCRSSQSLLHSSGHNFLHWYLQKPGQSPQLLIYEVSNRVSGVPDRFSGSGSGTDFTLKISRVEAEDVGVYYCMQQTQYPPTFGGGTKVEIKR",
    "result": 0.00036
  }
]

I need koff for every entry listed below, if you could help.
1. Ab124 (antibody, human IgG4 S228P, kappa, V domains shown) VH: QVQLQESGPGLVKPSQTLSLTCTVSGGSISSSPYSWSWIRQPPGKGLEWIGYVDLAGSTDYNPSLKSRVTMSVDTSKNQFSLKVNSVTAADTAVYYCARALSSRSSEWLLDQYTMDVWGQGTTVTVSS VL: EIVMTQSPATLSLSPGERATLSCRASQSIGINLAWYQQKPGQAPRLLIYGVSNRATGIPARFSGSGSGTDFTLTISSLEPEDFAVYYCQQYGTARLTFGGGTKVEIKR
2. Ab129 (antibody, human IgG4 S228P, kappa, V domains shown) VH: QVQLVQSGAEVKKPGASVKVSCKVSGFNYPRSAIHWVRQAPGKGLEWMGGINPSGEATIYAQKFQGRVTMTEDTSTDTAYMELSSLKSEDTAVYYCARDSSPQWLVTAGVYFYGMDVWGQGTTVTVSS VL: DIQMTQSPSSVSASVGDRVTITCRASQSISNWLAWYQQKPGKAPKLLIYHASTLQSGVPSRFSGSGSGTDFTLTISSLQPEDFANYYCQQYSSTPWTFGGGTKVEIKR
3. Ab127 (antibody, human IgG4 S228P, kappa, V domains shown) VH: EVQLVESGGGLVQPGGSLRLSCTASGFTFGSYPMDWVRQAPGKGLEWVSYISGRGDVTYYADSVKGRFTISRDNAKNTLYLQMNSLRAEDTAVYYCAKVQSPSELLWFGELLPVDYWGQGTLVTVSS VL: DIQMTQSPSSLSASVGDRVTITCQASQVIKTWLNWYQQKPGKAPKLLIYDASNLQRGVPSRFSGSGSGTDFTFTISSLQPEDIATYYCQQSASTPITFGGGTKVEIKR

1: 0.000454; 2: 0.000496; 3: 0.000265

Reference source for all entries: patent US20260209325A1
